TARGET SYSTEM: CLC-0 E166H mutant (Torpedo marmorata, UniProt P21564, C212S/E166H)
Sequence (P21564 whole entry E166H/C212S): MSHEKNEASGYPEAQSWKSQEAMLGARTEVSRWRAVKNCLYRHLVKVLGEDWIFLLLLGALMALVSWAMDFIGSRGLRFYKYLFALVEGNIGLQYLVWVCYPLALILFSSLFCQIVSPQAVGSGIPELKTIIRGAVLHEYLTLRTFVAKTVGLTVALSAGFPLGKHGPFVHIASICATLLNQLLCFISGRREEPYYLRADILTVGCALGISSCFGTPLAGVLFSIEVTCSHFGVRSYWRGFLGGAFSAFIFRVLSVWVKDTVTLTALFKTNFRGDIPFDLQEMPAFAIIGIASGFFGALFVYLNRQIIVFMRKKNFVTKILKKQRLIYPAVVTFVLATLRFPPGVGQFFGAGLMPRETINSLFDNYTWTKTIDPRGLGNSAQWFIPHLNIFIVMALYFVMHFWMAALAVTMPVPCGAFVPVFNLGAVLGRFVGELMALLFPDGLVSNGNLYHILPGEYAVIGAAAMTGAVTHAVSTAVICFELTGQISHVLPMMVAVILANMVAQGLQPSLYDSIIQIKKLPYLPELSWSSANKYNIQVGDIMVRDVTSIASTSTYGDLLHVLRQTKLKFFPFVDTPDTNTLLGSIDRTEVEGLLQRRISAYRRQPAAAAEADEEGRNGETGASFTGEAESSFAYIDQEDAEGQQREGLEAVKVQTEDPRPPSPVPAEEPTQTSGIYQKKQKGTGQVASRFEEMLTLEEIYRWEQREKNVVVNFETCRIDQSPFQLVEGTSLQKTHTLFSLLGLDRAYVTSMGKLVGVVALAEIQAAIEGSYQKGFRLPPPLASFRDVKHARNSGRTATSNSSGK
Type: cell-based
EXPERIMENTAL SETUP: read-out: Apparent affinity (K1/2); −140 mV
MEASUREMENT TYPE: IC50 (mM)
Kindly provide the numeric value in mM only, without the unit symbol.

[[record]]
compound = "CCCCCCCC(=O)O [octanoate]"
target_system = "CLC-0 E166H mutant (Torpedo marmorata, UniProt P21564, C212S/E166H)"
measurement_type = "IC50"
result_number = 7.02


Short answer for O=C(O)COc1ccc(Cl)cc1 [CPA, p-chlorophenoxy acetate] : IC50 was 0.39

These measurements were taken from paper PMC2606940.
